experiment: in vivo; details: rat
OBSERVATION TYPE: NOAEL at 90 day (mg/kg/day)

COMPOUND: [2H]C([2H])([2H])Oc1cc2c(cc1OC([2H])([2H])[2H])C1CC(=O)C(CC(C)C)CN1CC2 (stereo not shown)
OBSERVATION TYPE: NOAEL at 90 day
NUMERIC VALUE: 10
